src = the supplement of paper PMC8253809

System: DIPGX9 (diffuse intrinsic pontine glioma line)
Experiment: growth inhibition (% activity, log2 RLU normalised to DMSO / staurosporine); higher = more growth inhibition
Conditions: 33 µM
Provide the recorded growth inhibition for the entries that follow.
Write down the numeric answer in % and omit the unit.

Find the recorded growth inhibition belonging to OCCN(CCO)c1nc(N2CCCCC2)c2nc(N(CCO)CCO)nc(N3CCCCC3)c2n1 and report it.
-0.332

Find the recorded growth inhibition belonging to CCN(Cc1ccncc1)C(=O)C(CO)c1ccccc1 (configuration not stated) and report it.
-0.78

Find the recorded growth inhibition belonging to N=c1nc(N2CCCCC2)cc(N)n1O and report it.
-0.0641

Find the recorded growth inhibition belonging to C[C@@H]1CCN(C(=O)CC#N)C[C@@H]1N(C)c1ncnc2[nH]ccc12 and report it.
-0.0672

Find the recorded growth inhibition belonging to O=C(O)c1cccnc1 and report it.
1.6

Find the recorded growth inhibition belonging to CC(C)Cn1cnc2c(N)nc3ccccc3c21 and report it.
0.567

Find the recorded growth inhibition belonging to Cc1cc(=O)n(-c2ccccc2)n1C and report it.
0.213

###

Tested on: HGGX39 (paediatric high-grade glioma line)
Assay: growth inhibition (% activity, log2 RLU normalised to DMSO / staurosporine); higher = more growth inhibition
Conditions: 33 µM
Provide the recorded growth inhibition for the entries that follow.
Could you give the number and then its unit, please?

Find the recorded growth inhibition belonging to CCCCCCOC(=O)NC(=N)c1ccc(NCc2nc3cc(C(=O)N(CCC(=O)OCC)c4ccccn4)ccc3n2C)cc1 and report it.
1.62%

Find the recorded growth inhibition belonging to Nc1ccn(C2CSC(CO)O2)c(=O)n1 (centres undefined) and report it.
0.787%

Find the recorded growth inhibition belonging to CN[C@@H]1[C@H](O)[C@H](NC)[C@H]2O[C@@]3(O)C(=O)C[C@@H](C)O[C@H]3O[C@@H]2[C@H]1O and report it.
1.18%

Find the recorded growth inhibition belonging to COC(=O)Nc1nc2cc([S+]([O-])c3ccccc3)ccc2[nH]1 (centres undefined) and report it.
4.89%

Find the recorded growth inhibition belonging to NCC1OC(OC2C(N)CC(N)C(OC3OC(CO)C(O)C(N)C3O)C2O)C(N)C(O)C1O (centres undefined) and report it.
1.6%

Find the recorded growth inhibition belonging to O=C(O)c1cc(-c2ccccc2)nc2ccccc12 and report it.
1.46%

Find the recorded growth inhibition belonging to CN(C)CCCN1c2ccccc2Sc2ccc(C(F)(F)F)cc21 and report it.
3.34%

Find the recorded growth inhibition belonging to Nc1nc(N)c2nc(-c3ccccc3)c(N)nc2n1 and report it.
3.58%

Find the recorded growth inhibition belonging to Cc1nnc(C(C)C)n1C1C[C@H]2CC[C@@H](C1)N2CC[C@H](NC(=O)C1CCC(F)(F)CC1)c1ccccc1 (stereo in doubt) and report it.
1.14%

Find the recorded growth inhibition belonging to CC[C@@]1(O)C(=O)OCc2c1cc1n(c2=O)Cc2cc3c(CN(C)C)c(O)ccc3nc2-1 and report it.
40.2%

Find the recorded growth inhibition belonging to CCCCC[C@H](O)/C=C/[C@H]1[C@H](O)CC(=O)[C@@H]1CCCCCCC(=O)O and report it.
3.82%

Find the recorded growth inhibition belonging to CCCCOc1cc(C(=O)OCCN(CC)CC)ccc1N and report it.
14.2%

Find the recorded growth inhibition belonging to O=c1oc2cc(O)ccc2s1 and report it.
8.04%

Find the recorded growth inhibition belonging to CC(=O)NC[C@H]1CN(c2ccc(N3CCOCC3)c(F)c2)C(=O)O1 and report it.
3.34%

Find the recorded growth inhibition belonging to [O-]n1ccccc1=S.[O-]n1ccccc1=S.[Zn+2] and report it.
20.2%

Find the recorded growth inhibition belonging to CC(C)C(=O)Nc1ccc([N+](=O)[O-])c(C(F)(F)F)c1 and report it.
11.9%

Find the recorded growth inhibition belonging to CO/N=C(\C(=O)N[C@@H]1C(=O)N2C(C(=O)O)=C(CSC(=O)c3ccco3)CS[C@H]12)c1csc(N)n1 and report it.
0.968%

Find the recorded growth inhibition belonging to CCOC(=O)[C@H](CCc1ccccc1)N[C@@H](C)C(=O)N1Cc2cc(OC)c(OC)cc2C[C@H]1C(=O)O and report it.
-1.86%

Find the recorded growth inhibition belonging to CN1CCC(=C2c3ccccc3C=Cc3ccccc32)CC1 and report it.
7.18%

Find the recorded growth inhibition belonging to CCCc1cc(=O)[nH]c(=S)[nH]1 and report it.
-0.649%

Find the recorded growth inhibition belonging to C=C1/C(=C\C=C2/CCC[C@]3(C)[C@@H]([C@H](C)CCCC(C)(C)O)CC[C@@H]23)C[C@@H](O)C[C@@H]1O and report it.
5.14%

Find the recorded growth inhibition belonging to O=C(C1CCCCC1)N1CC(=O)N2CCc3ccccc3C2C1 (centres undefined) and report it.
2.3%

Find the recorded growth inhibition belonging to COc1cc2nc(N3CCN(C(=O)C4CCCO4)CC3)nc(N)c2cc1OC (centres undefined) and report it.
2.19%

Find the recorded growth inhibition belonging to CCOC(=O)C1=C(C)NC(C)=C(C(=O)OC)C1c1cccc([N+](=O)[O-])c1 (centres undefined) and report it.
0.389%

Find the recorded growth inhibition belonging to CCCCCCCCCCOc1cc2c(O)c(C(=O)OCC)cnc2cc1OCC and report it.
1.16%

Find the recorded growth inhibition belonging to CC1(C)O[C@@H]2C[C@H]3[C@@H]4CCC5=CC(=O)C=C[C@]5(C)[C@H]4[C@@H](O)C[C@]3(C)[C@]2(C(=O)CO)O1 and report it.
2.23%

Find the recorded growth inhibition belonging to COC(=O)[C@@H]1CC2=CC(=O)CC[C@]2(C)[C@@]23O[C@@H]2C[C@@]2(C)[C@@H](CC[C@@]24CCC(=O)O4)[C@H]13 and report it.
1.45%

Find the recorded growth inhibition belonging to CSc1ccc2c(c1)N(CCC1CCCCN1C)c1ccccc1S2 (centres undefined) and report it.
2.69%

Find the recorded growth inhibition belonging to O=C(O)CCc1nc(-c2ccccc2)c(-c2ccccc2)o1 and report it.
0.585%

Find the recorded growth inhibition belonging to CC(=O)O[C@]1(C(C)=O)CC[C@H]2[C@@H]3C[C@H](C)C4=CC(=O)CC[C@]4(C)[C@H]3CC[C@@]21C and report it.
-4.12%

Find the recorded growth inhibition belonging to CN(C)c1nc(N(C)C)nc(N(C)C)n1 and report it.
-3.6%

Find the recorded growth inhibition belonging to O=C(O)c1cc(=O)c2ccccc2o1 and report it.
0.445%

Find the recorded growth inhibition belonging to CC1=C(C(=O)O)N2C(=O)[C@@H](NC(=O)[C@H](N)c3ccccc3)[C@H]2SC1 and report it.
3.87%

Find the recorded growth inhibition belonging to COc1ccc(-n2nc(C(N)=O)c3c2C(=O)N(c2ccc(N4CCCCC4=O)cc2)CC3)cc1 and report it.
1.79%

Find the recorded growth inhibition belonging to CC1=C(CC(=O)O)c2cc(F)ccc2/C1=C\c1ccc([S+](C)[O-])cc1 (centres undefined) and report it.
0.763%

Find the recorded growth inhibition belonging to O=C(O)c1cn(C2CC2)c2cc(N3CCNCC3)c(F)cc2c1=O and report it.
-1.56%

Find the recorded growth inhibition belonging to CC(=O)O[C@@]12CO[C@@H]1C[C@H](O)[C@@]1(C)C(=O)[C@H](O)C3=C(C)[C@@H](OC(=O)[C@H](O)[C@@H](NC(=O)OC(C)(C)C)c4ccccc4)C[C@@](O)([C@@H](OC(=O)c4ccccc4)[C@H]21)C3(C)C and report it.
24.5%

Find the recorded growth inhibition belonging to C[C@]12CC[C@@H]3c4ccc(O)cc4CC[C@H]3[C@@H]1CC[C@@H]2O and report it.
0.663%

Find the recorded growth inhibition belonging to CCN(CC)C(=O)C1(c2ccccc2)CC1CN (centres undefined) and report it.
0.86%
